B1: Twister Ribozyme (parent)
chain: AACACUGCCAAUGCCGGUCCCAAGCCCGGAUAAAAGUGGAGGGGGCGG

# Variants of: B1
# Method: self-cleavage, relative activity (ratio to wild type); higher = more cleavage; co-transcriptional
Observed Property: self-cleavage
Give the value as a plain number.

Qu. Quick one: self-cleavage for A1C A22G ?
Ans. 0.149

Qu. May I ask what self-cleavage has been recorded for G41C G45U ?
Ans. 0.429

Qu. Any idea what its self-cleavage is? The variant is G17A C27G
Ans. 0.243

Qu. Given the variant C15G U37A , what is its reported self-cleavage?
Ans. 0.0636

Qu. Record request: self-cleavage value, item C15A C26A
Ans. 0.0686

Qu. Sample U37C G41U — what was its self-cleavage?
Ans. 0.126

Qu. Need self-cleavage of A2G G44A , thanks.
Ans. 0.316

Qu. Fill in: self-cleavage of G13C G42A is ___
Ans. 0.12

Qu. Return reported self-cleavage; argument: A1U G38C
Ans. 0.0576

Qu. For C5A G36A , what is its reported self-cleavage?
Ans. 0.583

Qu. Looking for the measured self-cleavage of C9G A30U , can you help?
Ans. 0.62

Qu. State the recorded self-cleavage for this entry: C19U G36U
Ans. 0.127

Qu. Form field: reported self-cleavage of A2C C9A
Ans. 0.0489

Qu. GET /values?readout=self-cleavage&item= G17C G24U
Ans. 0.0734

Qu. Which self-cleavage value belongs to C3G C9U ?
Ans. 0.191

Qu. Sample G28A G38C — what was its self-cleavage?
Ans. 0.691

Qu. # lookup: self-cleavage of A2C A10G
Ans. 0.151

Qu. Report self-cleavage for C9G U12C please.
Ans. 0.812

Qu. Request the reported self-cleavage associated with C8G C25G
Ans. 0.0929

Qu. What self-cleavage value was documented for this variant, C25G G41C ?
Ans. 0.133

Qu. For C3A A40U , what is its reported self-cleavage?
Ans. 0.0819

Qu. Please report the recorded self-cleavage for C3U A32U .
Ans. 0.402

Qu. # get_value(readout='self-cleavage', item= C5U G17U )
Ans. 0.116

Qu. Fill in the blank: the reported self-cleavage of C8A A35G is ____.
Ans. 0.226

Qu. Query: self-cleavage; subject: G13U A33C
Ans. 0.563

Qu. // query self-cleavage value for entry G13U C20G
Ans. 0.1

Qu. Fill blank: measured self-cleavage of the variant A4C G43C is ____.
Ans. 0.0981

Qu. Need self-cleavage, item A4G C26U
Ans. 0.252

Qu. Param item = C19G G42C ; retrieve measured self-cleavage.
Ans. 0.139

Qu. Quick one: self-cleavage for G13A U18C ?
Ans. 0.129

Qu. Which self-cleavage is listed for U18G C46U ?
Ans. 0.129

Qu. Requested field: self-cleavage. Item: U31C U37C
Ans. 0.587

Qu. Could you share which self-cleavage value was measured for A11U A23G ?
Ans. 0.755

Qu. Bench note: what self-cleavage did C3A U37A show?
Ans. 0.201

Qu. GET /values?readout=self-cleavage&item= C8G
Ans. 0.558

Qu. State the recorded self-cleavage for this entry: A11U
Ans. 1.04

Qu. Tell me the measured self-cleavage of C9U A33G , please.
Ans. 0.548

Qu. Please report the recorded self-cleavage for G7C C26A .
Ans. 0.0601

Qu. Item under review: G24A A33G . Reported self-cleavage?
Ans. 0.097

Qu. Dear colleague, I am looking for the recorded self-cleavage of the following variant: C3A G41A
Ans. 0.0897

Qu. Recorded self-cleavage for G7C C27A , please?
Ans. 0.0706

Qu. self-cleavage lookup needed for A4C C25G , thanks.
Ans. 0.0395

Qu. Given the entry G44U C46U , report its measured self-cleavage.
Ans. 1.02

Qu. If you can, please state the reported self-cleavage value of G17U A34G .
Ans. 0.182

Qu. Look up self-cleavage for this variant: A1G C46G
Ans. 0.428

Qu. Look at this variant and give its reported self-cleavage. A34C G45A
Ans. 0.144
